Where do the numbers come from? From patent US20170143701A1.

Recorded measurements of Plasma active GLP-1 level (relative value to control group as 100), average value, one per entry
tested on: C57/BL6J mice; experiment: In vivo plasma GLP-1 level-increasing action: plasma active GLP-1 level (ELISA) after oral administration; details: Table 10, Experiment 5; 10 mg/kg oral, blood 30 minutes after; 0.5% CMC-Na group = 100
measurement type: Plasma active GLP-1 level (relative value to control group as 100), average value

compound	readout value
O=C(O)CCC1NC(=O)C(Cc2ccccc2)NC1=O (centres unmarked) [compound 53, Cyclo(Glu-Phe)]	93
CCC(C)C1NC(=O)C(Cc2ccccc2)NC1=O (centres unmarked) [compound 55, Cyclo(Ile-Phe)]	90
CSCCC1NC(=O)C(CCCCN)NC1=O (centres unmarked) [compound 70, Cyclo(Met-Lys)]	93
CC(O)C1NC(=O)C(Cc2ccccc2)NC1=O (centres unmarked) [compound 56, Cyclo(Thr-Phe)]	87
CSCCC1NC(=O)C(Cc2ccccc2)NC1=O (centres unmarked) [compound 67, Cyclo(Met-Phe)]	93

----------
Recorded measurements of Plasma active GLP-1 level (relative value to control group as 100), average value, one per entry
tested on: C57/BL6J mice; test: In vivo plasma GLP-1 level-increasing action: plasma active GLP-1 level (ELISA) after oral administration; conditions: Table 12, Experiment 7; 10 mg/kg oral, blood 30 minutes after; 0.5% CMC-Na group = 100
measurement type: Plasma active GLP-1 level (relative value to control group as 100), average value

molecule	readout value
CCC(C)C1NC(=O)C(Cc2ccc(O)cc2)NC1=O (stereo not drawn)	222
O=C(O)CC[C@@H]1NC(=O)[C@H](Cc2ccc(O)cc2)NC1=O	141
NC(=O)CC[C@@H]1NC(=O)[C@H](Cc2ccc(O)cc2)NC1=O	344
